- Test system: primary rat mixed cortical cells
- measurement_protocol: In vitro myelination assay (MBP positive myelin strands, fold myelin pixels above background)
- Assay type: cell-based
- experimental_conditions: Rattus norvegicus, 10.0 μM compound, relative to baseline of no added compound; read-out: Fold myelin pixels above background, 10.0 μM
Readings of fold induction at 10 µM for the listed compounds
result_type: fold induction at 10 µM

* Cc1cc(Nc2ncn(-c3ccc(C(F)(F)F)cc3)n2)cc(N2CCN(C3COC3)CC2)c1 [Compound 191] | 1 to 10
* CC1CCN(c2cc(Nc3ncn(-c4ccc(F)c(F)c4)n3)cc(C3CC3)n2)CC1 [Compound 202] | 10 to 100
* COC(=O)N1CCC(c2cc(C)cc(Nc3ncn(-c4ccccc4)n3)c2)CC1 [Compound 12] | 1 to 10
* Cc1cc(Nc2ncn(-c3cc(F)cc(F)c3)n2)cc(N2CCN(C)CC2)n1 [Compound 365] | ≤ 1
* CCc1cc(Nc2ncn(-c3cnccn3)n2)cc(N2CCNCC2)c1 [Compound 124] | ≤ 1
* Cc1cc(Nc2ncn(-c3cc(F)cc(Cl)c3)n2)cc(N2CCN(C)CC2)c1 [Compound 220] | ≤ 1
* Cc1cc(Nc2ncn(-c3cc(F)cc(F)c3)n2)cc(N2CCN(C)C(CO)C2)c1 (stereo not shown) [Compound 53] | ≤ 1
* Fc1cc(Nc2ncn(-c3ccccc3F)n2)cc(N2CCOCC2)c1 [Compound 49] | 10 to 100
* Cc1cc(Nc2ncn(-c3ccccc3)n2)cc(N2CCOCC2)c1 [Compound 45] | 100 to 1000
* c1ccc(-n2cnc(Nc3cc(C4CC4)cc(N4CCN(C5COC5)CC4)c3)n2)cc1 [Compound 47] | ≤ 1
* Cc1cc(Nc2ncn(-c3ccccc3)n2)cc(N2CCC(C#N)CC2)c1 [Compound 142] | 100 to 1000
* Cc1cc(Nc2ncn(-c3ccccc3)n2)cc(N2CCN(C)CC2)n1 [Compound 156] | ≤ 1
* CCN1CCN(c2cc(C)cc(Nc3ncn(-c4ccccc4)n3)c2)CC1 [Compound 274] | 1 to 10
* Cc1cc(Nc2ncn(-c3ccccc3)n2)cc(N2CCN(C3CCCOC3)CC2)c1 (stereo not shown) [Compound 172] | 1 to 10
* Fc1cc(Nc2ncn(-c3cccc(F)c3)n2)cc(N2CCCOCC2)c1 [Compound 166] | 10 to 100
* Cc1cc(Nc2ncn(-c3ccccc3)n2)cc(C2=CCN(C3COC3)C2)c1 [Compound 160] | ≤ 1
* Cc1cc(Nc2ncn(-c3cncc(Cl)c3)n2)cc(N2CCN(C)CC2)c1 [Compound 262] | 100 to 1000
* COC1CN(c2cc(C)cc(Nc3ncn(-c4cc(F)cc(F)c4)n3)c2)C1 [Compound 2] | 100 to 1000
* FC(F)c1cc(Nc2ncn(-c3ccccc3)n2)cc(N2CCN(C3COC3)CC2)c1 [Compound 26] | ≤ 1
* Fc1cc(F)cc(-n2cnc(Nc3cc(C4=CCOC4)cc(N4CCOCC4)c3)n2)c1 [Compound 298] | 100 to 1000
* CN1CCN(c2cc(F)cc(Nc3ncn(-c4ccccc4)n3)c2)CC1 [Compound 213] | ≤ 1
* Cc1cc(Nc2ncn(-c3ccccc3F)n2)cc(N2CCN(C3COC3)CC2)c1 [Compound 223] | 10 to 100
* Fc1cc(F)cc(-n2cnc(Nc3cc(C(F)F)cc(N4CCN(C5COC5)CC4)c3)n2)c1 [Compound 82] | 100 to 1000
* CCc1cc(Nc2ncn(-c3cc(F)cc(F)c3)n2)cc(N2CCN(C3(C)COC3)CC2)c1 [Compound 264] | 10 to 100
* Cc1cc(Nc2ncn(-c3cc(F)cc(F)c3)n2)cc(N2CC(n3cccn3)C2)c1 [Compound 379] | 100 to 1000
